Target: Recombinant Human CTLA4-Fc chimera (R&D systems) (human) (UniProt P16410)
Assay: ELISA, signal over SA
Hi there, I'd appreciate the recorded ELISA S/N(SA) for every entry that follows.

Check out these entries, answers already filled in.
GGCWHPCLPILSPHFCPR (peptide, not shown: large carriers; small tags and cut ends) [C4m3127-4th-NNS6-30] : 7.5
GGCWHPWLPIYSHHFCPI (peptide, not shown: large carriers; small tags and cut ends) [C4m#19-5th4w-NN6-24] : 27.6
GGCFHPFLPIFSYHFCGL (peptide, not shown: large carriers; small tags and cut ends) [C4m#19-5th2w-NNS6-46] : 6.1

Looking up GGCAHPVLPIRSLHFCPH (peptide, not shown: large carriers; small tags and cut ends) [C4m#19-5th4w-NN6-86] , I found its ELISA S/N(SA) recorded as 19.7

From: patent US20240092836A1
